# System: MS2 coat protein
# experiment summary: apparent KD of MS2 coat protein; designed switch direction (-1 OFF switch, 1 ON switch): -1; higher = weaker reporter binding
# assay context: input ligand: none
Hi there, I'd appreciate the recorded apparent KD of MS2 coat protein for every entry that follows.
Give bare numbers, in nM.

# macromolecule sequence, apparent KD of MS2 coat protein / nM
records = [
    ("UUGGAGAGAGGAUAUCCCUAGUUUAACAUGAGGAUCACCCAUGUGCGCGUCAAGUCGAAAGGAGAAGGUUCGGCGA [Eternabot (L1) Solution 5] (Eterna round: R97, puzzle: Exclusion 5)", 26.8),
]

Please give apparent KD of MS2 coat protein for each item listed below.
1. CAGUUCCAGGGAGGAUAUCCGAAAGGAAGUGUAGGAGAAGGCCCAAACUGAAAACACAUGAGGAUCACCCAUGUAGGUGUUCUC [PowerStrip EXNG 1.20] (Eterna round: R96, puzzle: Exclusion NG 1)
2. UUUUAAUAUGAAGGAUAUACUUAACAUGAGGAUCACCCAUGUGGUGUUGUGAGUGAGUGAGUUUAGUAGAAGGUCAAUUAUUUU [JMF's solution 25] (Eterna round: R96, puzzle: Exclusion NG 2)
3. UGUUGUUACGCAGGAUAUGAGGAUCACCCAUAUAAGGAUAUCGAAAGAGAAGUUCUGAGGAUCACCCAGAAGGGCGGGUUAACA [pwkr exNG2 2xF5 2xFMN.31] (Eterna round: R96, puzzle: Exclusion NG 2)
4. CAGCGAUCAGGAUAUACAUGAGGAUCACCCAUGUGUUCCAGCUAGGAAACUAGCAAAUGUAGAAGGGAUCGCUG [jl-ex3-4.00 salish99 mod] (Eterna round: R97, puzzle: Exclusion 3)

Reply:
[659, 405, 71.1, 346]

----------
# Test system: K4 kissing-loop RNA reporter;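 note: bound reporter read as fluorescence of individual clusters on recovered sequencing chips by microscopy, with normalized cluster intensities fitted with a binding model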
# experiment summary: apparent KD of K4 kissing-loop reporter; higher = weaker reporter binding
# assay context: Eterna round: R107; input ligand: tryptophan 2.4 mM
quantity kind: apparent KD of K4 kissing-loop reporter (nM)
Give bare numbers, in nM.

Past entries and their recorded results:
# macromolecule sequence, uom, assay value
records = [
    ("ACGUGCACCAGUGAUGUUGGAAAAUAUGAAGGAGCGGGUGAAAACCCAGGUAGGUCGCAUAAUAGCACGAGCCACGAAAGUGGCA", "nM", 122),
    ("CAUACGCAUGGAGGAUAUGAGAUUACUCAUAUUAUUUAAUAUUCUCAGUGAUGUUGAGAUAUAAACUCAGAAGGCCAUGUGUAUG [Ex FMN B 1]", "nM", 153),
    ("GGUUAGUGAUGUUGAUCAAAUCGCGGUGAUACCAGCAACACAUCGUGCCCUUGGCAGCACGGCAAAAUGAAUGCGGUCGAAUGCG [theeternabot_exclusion_KL_Theo_A_19]", "nM", 412),
    ("UUUCGGUUCUGAGGAUAUUCGGACAAAUAUAGUGAUGUUGUAUAAGGAGGAGGGUGUUGGCAGUGCGGAGAAGGCAGACCACGAU [ExFMNB.X]", "nM", 621),
    ("AAUGUGCAGGGAAGGAGCGUAGUCCAGUGCUGUUGGAGUUAGAUACCAGUGAUGUUGGUUAUACAGGUAGGUCGCCCUAAAGCGC [whbob_Ex_Arginine_B_2th161]", "nM", 130),
]

Please give apparent KD of K4 kissing-loop reporter for each item listed below.
1. AUUAAUAACUGAGGAUAUCGUUUUACUGUAGUGAUGUUACAGAAAGUUCAAAUUAUAAUUUCUAUUCGAGAAGGCAGAAUAAUUA [JR_SSFMNB_Sub026]
2. AUUUAUUCGAGUGAUGUUCGUGAUUUUUCAGAGGAUAUGCGUAAUAGCAGAAGGCUGUAUUUAUAUAUAUUUUGAUUUUUUUAAA [JR_Nu3_ExcFMNA_Sub024]
3. UGUAAGCGCGUAGAUACCAGCAAACGAGUGAUGUUCAAAAGAUUAAGGAAAAGAAAGUAAUGCCCUUGGCAGCUAAUCAUAAGCG [whbob_Ex_Theo_B_sa91]
4. CGAGUCAAUUCAGAUACCAGCCAAUUAAAGUCGAGUGAUGUUCGACAAUGAACAUCCAAAGGCCCUUGGCAGCUGAAUUGGGAAC [Same State Theophylline B GF 18]
5. AGGACGUGAGAAGAUACCAGAGAAUAAUGCAGUGAUGUUGCUAAAUAUAAUUUAAUAUAACUCCCUUGGCAGCUUAAGUUAGUCU [Theophylline b same state]
6. ACGUGCACUAGUGAUGUUAGAAAAUACGAAGGAGCGGGCGAAAGCCCAGGUAGGUCGCGUAAUAGCACGAGCCACGAAAGUGGCA
7. GCAUCGAUGGCAGGAUAUAGGUUCGUGGAGUGAUGUUCCAUAGCCCGAGUGAUGUUCGUUAUCCGCCUAGAAGGGCCGUGGAUGC [whbob_Ex_FMNB__2th215]

Reply:
1. 48.1
2. 61.8
3. 247
4. 83.4
5. 73.9
6. 248
7. 244

Please give apparent KD of K4 kissing-loop reporter for each item listed below.
1. AGUAGUUGGACGGCCGCCACUAGAACGCCUUUGCCAAAGGCAGAGGACUAGAGUGAUGUUCUAGCUAGGACCGGGUCCAACUACA [Omei KL Tryp B SS A v4]
2. UUAGUCUAGAGAAGGAGCGAGUGAUGUUCGCAGCCCAAAUAAUAAUAAUAAUAAGGGCAUCCUCAGGUAGGUCGCUCUAGACAUU [AK5 Exc Arginine B]
3. GAAACGUUGCGGACUAUCGCAUAAAGUCACCGAGGACCGGUACGGCCGCCACUCGCCAGUGAUGUUGGCGUGUUUGCGCGCUGUG [Titebebi]
4. AGAGUUAUGCGAGGAUAUGCGGUUAGUACUCAAAGAGUACUAACGCAGAGUGAUGUUCUGUGAAACACAGAAGGUGCAUAACUCA [Omei KL FMN B SS B v2]
5. UGACUGGAUGGAAGGAGCGCUAAACUCCUAGUGAUGUUAGGGACACGAGGCAAAGCCUCGAAGCAGGUAGGUCGCCAUCUAGUCU [FiskerMod 22 - Jieux - Same State - Arginine B]

Reply:
1. 1220
2. 292
3. 178
4. 148
5. 167

Please give apparent KD of K4 kissing-loop reporter for each item listed below.
1. UUUUGGUUCUGAGGAUAUUCGAAGAAAUAUAGUGAUGUUAUAUAAGGAGGAGGAUGUAGGGAGGAAGGAGAAGGCAGAAGAGGAG [ExFMNB.J]
2. UGAUACCAGACUGAUACCAGCGAGUGAUGUUUGCUGAAAUCAGGGUCAAAGACCCUGUCUCGCCCUUGGCAGCAGUCUGGUAUCU [TheoBX 21 #SwitchBubble #StaticStem]
3. CCGGCCCGGCCGGAUACCAGUGCGCCGCUGGGAACUGCGGGCCCAGAGUGAUGUUCGGGACACCCUUGGCAGCCGCCUGGGUCGC [#2 Same State - Theophylline B Attempt #25 (HarryS)]
4. ACCUACGAUCACAAUAGUGAUUGUAGGAACUAGGAUAUGCUGAAAAGCAGAAGGAGUGAUGUUCCAACUCAUGAAUAACAUGAGA [FmnAX 2 #OpenEnded #K4Late]

Reply:
[480, 688, 439, 198]

Please give apparent KD of K4 kissing-loop reporter for each item listed below.
1. AUUUAAUUAACUGAUACCAGACUUUUUGUUUUGUUUAUUACUAGUGAUGUUAGUGUUUCUGUCCCUUGGCAGCAGAAUCUACUUA [JR_ExcTheophyB_Sub019]
2. UGGAGUUGACGAAAAGUCAACUCCUGAGAUACCAGUGACGAAAGUCACCCUUGGCAGCUCACUGGCAGUGAUGUUGCAAAAUAAA [KL-SSTheo-A4]

Reply:
[165, 123]
